# MEASURED TARGET: PPAR-α (Homo sapiens, UniProt Q07869)
# Sequence (Q07869 1-468): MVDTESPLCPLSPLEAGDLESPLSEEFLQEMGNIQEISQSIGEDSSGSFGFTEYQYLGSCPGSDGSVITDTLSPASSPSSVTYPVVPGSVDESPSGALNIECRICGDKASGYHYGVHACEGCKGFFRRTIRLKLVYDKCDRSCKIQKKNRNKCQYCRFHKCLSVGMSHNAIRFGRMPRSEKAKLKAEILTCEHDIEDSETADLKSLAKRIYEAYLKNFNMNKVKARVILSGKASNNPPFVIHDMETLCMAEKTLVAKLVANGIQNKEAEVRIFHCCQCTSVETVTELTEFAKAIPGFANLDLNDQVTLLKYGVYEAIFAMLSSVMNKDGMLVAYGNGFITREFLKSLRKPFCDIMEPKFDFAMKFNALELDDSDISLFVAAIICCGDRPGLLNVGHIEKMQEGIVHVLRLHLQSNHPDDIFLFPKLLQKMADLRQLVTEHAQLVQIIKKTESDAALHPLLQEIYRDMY
# TEST PROTOCOL: Scintillation Proximity Assay (SPA), displacement of 3H labeled GW2331
# Type: binding
# EXPERIMENTAL SETUP: 3H GW2331 displacement, read-out: PPAR-alpha Ki
pKi: −log10 of the molar value.
QUANTITY MEASURED: pKi

[[record]]
compound = "Cc1oc(-c2cccc(N(C)C)c2)nc1CCOc1ccc(CC2(C(=O)O)CCCO2)cc1 (centres unmarked)"
measured_target = "PPAR-α (Homo sapiens, UniProt Q07869)"
quantity_measured = "pKi"
reported_measurement = 7.82


[A] Cc1oc(-c2cccc(F)c2)nc1CCOc1cccc(-c2cccc(OC(C)(C)C(=O)O)c2)c1
[B] Cc1oc(-c2ccc(C#N)cc2)nc1CCOc1ccc(CC2(C(=O)O)CCCO2)cc1 (centres unmarked)
Could you point out whether the larger pKi belongs to A or to B ? Provide the label of your selected option as the answer. B
(B: 7.28, A: 6.51)

[I] CCC(Oc1cccc(CNC(=O)OCc2nc(-c3ccccc3)oc2C)c1)C(=O)O (centres unmarked)
[II] COC(C)(Cc1ccc(OCCN(C)c2nc3ccccc3o2)nc1)C(=O)O (centres unmarked)
Hi, I'm comparing two records. Which one has the lower pKi, I or II ? Provide the label of your selected option as the answer. II
(II: 5.49, I: 7.68)

[a] Cc1oc(-c2ccccc2)nc1CCOc1cccc(-c2cccc(OC3(C(=O)O)CCC3)c2)n1
[b] Cc1oc(-c2ccccc2)nc1CCCc1ccc(OC2(C(=O)O)CCC2)cc1
Hi, I'm comparing two records. Which one has the lower pKi, a or b ? Provide the label of your selected option as the answer. b

[1] CC(C)(Oc1cccc(CNS(=O)(=O)c2ccc(Oc3ccccc3)cc2)c1)C(=O)O
[2] CC(Cc1ccccc1)OC(=O)NCc1cccc(OC(C)(C)C(=O)O)c1 (centres unmarked)
Could you point out whether the larger pKi belongs to 1 or to 2 ? Provide the label of your selected option as the answer. 1
(1: 5.80, 2: 5.11)

[A] CCS(=O)(=O)Oc1ccc(CCOc2ccc(CC(OC)C(=O)O)cn2)cc1 (centres unmarked)
[B] COC(C)(Cc1ccc(OCCc2nc(-c3ccc(C(F)(F)F)cc3)oc2C)nc1)C(=O)O (centres unmarked)
Could you point out whether the larger pKi belongs to A or to B ? Provide the label of your selected option as the answer. B

[P] CCC(Oc1cccc(CNC(=O)OCCc2cccc(C(F)(F)F)c2)c1)C(=O)O (centres unmarked)
[Q] COC(C)(Cc1ccc(OCCc2nc(-c3ccccc3)oc2C)nc1)C(=O)O (centres unmarked)
Hi, I'm comparing two records. Which one has the lower pKi, P or Q ? Provide the label of your selected option as the answer. P

[P] O=C(O)C1(Cc2ccc(OCCc3ccc(-c4cccc(OC(F)(F)F)c4)cc3)cc2)CCC1
[Q] Cc1sc(-c2ccccc2)nc1CCOc1ccc(CC2(C(=O)O)CCCO2)nc1 (centres unmarked)
[R] COc1ccc(-c2nc(CCOc3ccc(CC4(C(=O)O)CCCO4)cc3)c(C)o2)cc1 (centres unmarked)
Arrange the 3 compounds by rising pKi, starting with the smallest. Return value: ordered labels per request. P, Q, R
